procedureSummary: Antioxidant activity assessed as superoxide radical scavenging activity by xanthine oxidase method
Type: functional
Reported log10(IC50) values follow for various compounds
Values are log10 of IC50 in µM.

Worked examples, 6 compounds total:
O=C1C=C(/C=C/c2ccc(O)c(O)c2)OC12C(c1cc3oc(=O)c4cc(O)c(O)cc4c3c(=O)o1)=Cc1cc(O)c(O)cc12 (configuration not stated) | 1.97
CC(=O)C1(O)C(c2cc3oc(=O)c4cc(O)c(O)cc4c3c(=O)o2)=Cc2cc(O)c(O)cc21 (configuration not stated) | 1.96
O=c1oc(/C=C/c2ccc(O)c(O)c2)cc(O)c1-c1cc(O)c(O)cc1/C=C/c1cc2oc(=O)c3cc(O)c(O)cc3c2c(=O)o1 | 1.97
O=C(O)/C=C/c1ccc(O)c(O)c1 | 1.01
CC1=CC(=O)C2(O1)C(c1cc3oc(=O)c4cc(O)c(O)cc4c3c(=O)o1)=Cc1cc(O)c(O)cc12 (configuration not stated) | 2.08
Cc1cc(=O)cc(-c2cc(O)c(O)cc2-c2c(O)cc(/C=C/c3ccc(O)c(O)c3)oc2=O)o1 | 1.99

Now look at this one.
log10(IC50) in this record for O=c1oc2cc(/C=C/c3ccc(O)c(O)c3)oc(=O)c2c2cc(O)c(O)cc12 : 1.93
